- assay.explanation: Tissue distribution of lorlatinib in mice after oral administration (LC-MS/MS)
- Format: in vivo, Kun Ming mice
- measurement.conditions: Kun Ming, mouse, 10 mg/kg, 0.5 h, stomach, read-out: concentration in stomach
parameter.measured: concentration at 0.5 h
Don't forget the unit after the value.

Please give the measured concentration at 0.5 h for this molecule: `C[C@H]1Oc2cc(cnc2N)-c2c(nn(C)c2C#N)CN(C)C(=O)c2ccc(F)cc21` 21600 ng/g

* * *

- assay.explanation: Pharmacokinetic study of lorlatinib in mouse serum after oral administration (LC-MS/MS, noncompartmental model)
- Assay type: in vivo, Kun Ming mice
- measurement.conditions: Kun Ming, mouse, mice, 10 mg/kg, n=8, mean
parameter.measured: Cmax
The answer should read as a number with its unit following.

// query Cmax value for entry C[C@H]1Oc2cc(cnc2N)-c2c(nn(C)c2C#N)CN(C)C(=O)c2ccc(F)cc21 [Lorlatinib] 2710 ng/mL

* * *

- assay.explanation: Pharmacokinetic study of lorlatinib in mouse serum after oral administration (LC-MS/MS, noncompartmental model)
- Assay type: in vivo, Kun Ming mice
- measurement.conditions: Kun Ming, mouse, mice, 10 mg/kg, n=8, mean
parameter.measured: Tmax (min)
Write the value in min as a bare number.

Query: Tmax; subject: `C[C@H]1Oc2cc(cnc2N)-c2c(nn(C)c2C#N)CN(C)C(=O)c2ccc(F)cc21` 37.5

* * *

- assay.explanation: Tissue distribution of lorlatinib in mice after oral administration (LC-MS/MS)
- Assay type: in vivo, Kun Ming mice
- measurement.conditions: Kun Ming, mouse, 10 mg/kg, 0.5 h, small intestine, read-out: concentration in small intestine
- Description: All the animal-related experiments were performed in accordance with guidelines of Institutional Experimental Animal Ethical Committee. Kun Ming mice (18–20 g) were obtained from the Beijing HFK Bioscience Co., Ltd. (Beijing, China). All mice were given free access to normal diet and water during the experiment with an exception that mice were fasted for 12 h prior to drug administration. […]
parameter.measured: concentration at 0.5 h (ng/g)
Entry rule: numbers only, all in ng/g.

Query: concentration at 0.5 h; subject: `C[C@H]1Oc2cc(cnc2N)-c2c(nn(C)c2C#N)CN(C)C(=O)c2ccc(F)cc21` 5410

* * *

- assay.explanation: Tissue distribution of lorlatinib in mice after oral administration (LC-MS/MS)
- Format: in vivo, Kun Ming mice
- measurement.conditions: Kun Ming, mouse, 10 mg/kg, 0.5 h, spleen, read-out: concentration in spleen
parameter.measured: concentration at 0.5 h (ng/g)
Number only, in ng/g; omit the unit.

Would you mind telling me what concentration at 0.5 h value was observed for `C[C@H]1Oc2cc(cnc2N)-c2c(nn(C)c2C#N)CN(C)C(=O)c2ccc(F)cc21` ? 2470

* * *

- assay.explanation: Pharmacokinetic study of lorlatinib in mouse serum after oral administration (LC-MS/MS, noncompartmental model)
- Format: in vivo, Kun Ming mice
- measurement.conditions: Kun Ming, mouse, mice, 10 mg/kg, n=8, mean, read-out: t1/2z (converted)
parameter.measured: half-life (h)
Express the result in h but write the number alone.

For `C[C@H]1Oc2cc(cnc2N)-c2c(nn(C)c2C#N)CN(C)C(=O)c2ccc(F)cc21` , what is its reported half-life? 3.26

* * *

- assay.explanation: Tissue distribution of lorlatinib in mice after oral administration (LC-MS/MS)
- Assay type: in vivo, Kun Ming mice
- measurement.conditions: Kun Ming, mouse, 10 mg/kg, 0.5 h, lung, read-out: concentration in lung
parameter.measured: concentration at 0.5 h
The answer consists of two parts: a number and, after it, its unit.

Dear colleague, I am looking for the recorded concentration at 0.5 h of the following compound: `C[C@H]1Oc2cc(cnc2N)-c2c(nn(C)c2C#N)CN(C)C(=O)c2ccc(F)cc21` 3090 ng/g
